Biological target: human β2 adrenergic receptor (Homo sapiens, UniProt P07550)
Construct: expressed in transfected cells
Sequence (P07550 whole entry): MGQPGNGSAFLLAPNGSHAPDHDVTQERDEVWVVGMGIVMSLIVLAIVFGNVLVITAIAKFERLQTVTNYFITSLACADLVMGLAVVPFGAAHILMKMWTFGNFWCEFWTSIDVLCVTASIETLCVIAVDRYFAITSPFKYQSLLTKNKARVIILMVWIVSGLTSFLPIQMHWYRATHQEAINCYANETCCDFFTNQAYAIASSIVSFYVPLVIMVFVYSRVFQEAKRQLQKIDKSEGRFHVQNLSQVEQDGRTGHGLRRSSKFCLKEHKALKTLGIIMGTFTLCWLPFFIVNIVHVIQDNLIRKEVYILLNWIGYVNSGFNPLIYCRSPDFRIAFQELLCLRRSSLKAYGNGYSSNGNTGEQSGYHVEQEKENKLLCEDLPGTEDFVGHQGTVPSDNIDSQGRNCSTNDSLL
Experiment: Whole-cell cAMP Flashplate assay in CHO cell lines heterologously expressing human β2 adrenergic receptor
Type: cell-based
Conditions: CHO-K1 cells
pEC50: −log10 of the molar value.
Measure: pEC50

Kindly indicate its recorded pEC50. Item: O=C(CCN1CCC(OC(=O)Nc2ccccc2-c2ccccc2)CC1)NCCCCCNC[C@H](O)c1ccc(O)c2[nH]c(=O)ccc12 [Example 6, Ditrifluoroacetate]
> 8.00

====

Molecular target: M3 muscarinic receptor (Homo sapiens, UniProt P20309)
Sequence (P20309 whole entry): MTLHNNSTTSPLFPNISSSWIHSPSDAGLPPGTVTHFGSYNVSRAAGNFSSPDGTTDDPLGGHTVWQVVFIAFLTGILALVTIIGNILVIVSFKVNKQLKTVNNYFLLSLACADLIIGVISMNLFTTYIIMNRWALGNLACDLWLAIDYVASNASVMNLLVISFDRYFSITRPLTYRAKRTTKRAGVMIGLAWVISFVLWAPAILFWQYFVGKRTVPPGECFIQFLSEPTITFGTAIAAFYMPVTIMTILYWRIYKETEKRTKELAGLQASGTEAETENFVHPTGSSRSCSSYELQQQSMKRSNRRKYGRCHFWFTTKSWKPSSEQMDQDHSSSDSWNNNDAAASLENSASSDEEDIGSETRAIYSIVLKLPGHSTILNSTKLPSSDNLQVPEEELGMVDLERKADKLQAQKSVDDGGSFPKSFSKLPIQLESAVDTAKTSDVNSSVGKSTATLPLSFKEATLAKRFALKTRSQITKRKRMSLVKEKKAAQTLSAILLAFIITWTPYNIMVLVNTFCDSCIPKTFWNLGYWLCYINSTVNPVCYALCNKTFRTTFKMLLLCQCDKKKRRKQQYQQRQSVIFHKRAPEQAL
pKi: −log10 of the molar value.
Measure: pKi

Quick one: give measured pKi for O=C(CCN1CCC(OC(=O)Nc2ccccc2-c2ccccc2)CC1)NCCCCCNC[C@H](O)c1ccc(O)c2[nH]c(=O)ccc12 [Example 6, Ditrifluoroacetate]
> 8.00
